For each record, write down the corresponding hERG current change (%, negative = inhibition) at 10uM.
study-target: human ether-à-go-go-related gene (hERG) potassium channel (human);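 also: peak tail current of the secondary pulse compared with the same well before compound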
Sequence (Q12809 whole entry, looked up): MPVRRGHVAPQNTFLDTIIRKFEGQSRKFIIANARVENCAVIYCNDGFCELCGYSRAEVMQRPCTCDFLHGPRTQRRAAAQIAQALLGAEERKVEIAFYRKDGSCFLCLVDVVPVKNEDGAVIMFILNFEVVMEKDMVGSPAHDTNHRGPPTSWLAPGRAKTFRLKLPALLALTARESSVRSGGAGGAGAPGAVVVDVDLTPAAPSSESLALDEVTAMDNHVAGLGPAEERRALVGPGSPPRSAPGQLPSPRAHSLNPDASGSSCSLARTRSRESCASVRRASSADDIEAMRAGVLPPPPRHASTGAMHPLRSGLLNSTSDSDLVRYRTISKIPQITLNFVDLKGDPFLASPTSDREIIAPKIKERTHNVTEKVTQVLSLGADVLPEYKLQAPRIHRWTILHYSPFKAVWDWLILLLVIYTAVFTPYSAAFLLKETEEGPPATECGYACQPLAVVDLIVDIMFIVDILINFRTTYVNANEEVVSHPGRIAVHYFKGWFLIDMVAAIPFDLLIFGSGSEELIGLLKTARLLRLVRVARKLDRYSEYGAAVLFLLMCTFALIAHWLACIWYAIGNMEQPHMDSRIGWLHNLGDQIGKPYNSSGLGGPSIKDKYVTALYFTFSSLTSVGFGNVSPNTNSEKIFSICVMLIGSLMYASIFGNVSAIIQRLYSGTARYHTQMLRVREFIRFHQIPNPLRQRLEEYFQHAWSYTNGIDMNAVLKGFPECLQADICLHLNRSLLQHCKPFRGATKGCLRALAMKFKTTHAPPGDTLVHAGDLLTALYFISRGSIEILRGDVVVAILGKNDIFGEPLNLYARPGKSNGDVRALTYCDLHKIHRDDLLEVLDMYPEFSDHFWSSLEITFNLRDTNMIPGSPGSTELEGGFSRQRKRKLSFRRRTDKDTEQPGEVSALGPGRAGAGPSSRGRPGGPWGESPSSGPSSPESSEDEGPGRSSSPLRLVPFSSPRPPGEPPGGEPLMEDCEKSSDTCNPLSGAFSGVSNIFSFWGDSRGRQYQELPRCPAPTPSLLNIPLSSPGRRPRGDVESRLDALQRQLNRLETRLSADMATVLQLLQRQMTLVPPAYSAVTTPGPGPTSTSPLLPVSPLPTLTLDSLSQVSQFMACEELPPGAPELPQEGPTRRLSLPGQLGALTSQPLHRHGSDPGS
assay-protocol: primary screen, population patch clamp on CHO cells stably expressing hERG; higher = less effect of the substance
The campaign covered roughly 310,000 compounds. About 14,000 (4.5%) showed an effect of 50% or more. The effect is printed as a negative number. What follows is part of a selection rich in strong results, with near analogues and random picks from the rest.
One number for each entry, in %.

compound	recorded-result
Cc1cc(NC(=O)c2cccc(Oc3ccccc3)c2)n[nH]1	1.16
OCC1(CCc2ccccc2)CCN(Cc2ccc3nsnc3c2)CC1	-77.7

Below are 8 compounds. Give each one its hERG current change (%, negative = inhibition) at 10uM.
1. C=CCn1c(CSc2nnc(-c3ccccc3)n2C)n[nH]c1=S
2. ClCc1ncc(-c2ccc(Cl)cc2)o1
3. CC(=O)c1ccc(NC(=O)C(C)N(C)CC(=O)Nc2cccc(F)c2)cc1 (centres unmarked)
4. OCC1(Cc2ccc(Cl)cc2)CCN(Cc2ccc3nsnc3c2)CC1
5. [N-]=[N+]=NC(c1ccccc1)c1nc2ccccc2[nH]c1=O (centres unmarked)
6. CN1CCN(c2nc(-c3ccccc3)cc(C(F)(F)F)n2)CC1
7. COc1ccc(CC2(CO)CCN(Cc3ccc4c(c3)CCO4)CC2)cc1
8. OCCC1CN(Cc2ccc3nsnc3c2)CCN1C1CCCC1 (centres unmarked)

Result:
[16.7, 33.5, -17.3, -61.5, -7.74, -19.1, -65.7, -25]
